Molecular target: HLA-DR DRB1*1101 (human)
Assay: competition with 125I-labeled reference peptide, purified HLA
pIC50: −log10 of the molar value.

BINDER | pIC50
RREVHIYYLEKANKI (modifications not checked) [Flu.PA.127] | 7.02
